Entries annotated with measured IC50, inhibition of feline IL-31-induced STAT3 phosphorylation, canine DH82 cells
tested-system: wildtype feline IL-31 (Feline_IL31_wildtype) (feline)
Sequence (chain, as listed by the source limits assumed, form in doubt): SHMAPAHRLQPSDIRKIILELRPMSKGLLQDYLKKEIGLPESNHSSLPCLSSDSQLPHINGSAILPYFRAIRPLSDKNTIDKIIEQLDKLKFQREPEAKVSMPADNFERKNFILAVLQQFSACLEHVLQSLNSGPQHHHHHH
// return numeric value only (unit: µg/mL, not printed)

mouse anti IL-31 antibody 15H05 (antibody, V domains shown) VH: QVQLQQSAAELARPGASVKMSCKTSGYTFTSYTIHWIKQRPGQGLEWIGNINPTSGYTENNQRFKDKTTLTVDRSSNTAYLQLHSLTSEDSAVYFCARWGFKYDGEWSFDVWGAGTTVTVSS VL: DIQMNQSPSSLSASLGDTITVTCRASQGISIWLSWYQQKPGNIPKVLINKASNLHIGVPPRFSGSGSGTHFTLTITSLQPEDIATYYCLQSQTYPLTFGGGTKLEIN : 2.7
mouse anti IL-31 antibody 11E12 (antibody, V domains shown) VH: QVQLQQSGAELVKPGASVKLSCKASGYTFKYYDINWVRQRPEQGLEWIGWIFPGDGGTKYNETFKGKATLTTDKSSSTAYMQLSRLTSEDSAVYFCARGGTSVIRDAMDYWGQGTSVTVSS VL: DIVLTQSPASLAVSLGQRATISCRASESVDNYGISFMHWYQQKPGQPPKLLIYRASNLESGIPARFSGSGSRTDFTLTINPVETDDVATYYCQQSNKDPLTFGAGTKLELK : 2.47

Turning to the following binder.
Return reported IC50, inhibition of feline IL-31-induced STAT3 phosphorylation, canine DH82 cells; argument: Feline 11E12 1.1 FW2 (antibody, V domains shown) VH: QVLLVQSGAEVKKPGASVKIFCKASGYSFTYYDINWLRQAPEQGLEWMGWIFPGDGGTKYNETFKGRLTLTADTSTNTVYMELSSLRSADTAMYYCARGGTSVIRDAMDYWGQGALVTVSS VL: EIQMTQSPSSLSASPGDRVTITCRASESVDNYGISFMHWYQQKPGQPPKLLIYRASNLESGVPSRFSGSGSGTDFTLTISSLEPEDAATYYCQQSNKDPLTFGQGT
5.66
